# assayRemarks: Toxicity in brine shrimp assessed as mortality
# Assay type: organism-based
# details: artemia salina, in vivo; read-out: LD50 (the source's name)

{"molecule": "C=CC(C)(C)c1[nH]c2c(C[C@H](O)C(C)(C)O)cccc2c1C[C@@H]1NC(=O)[C@H](C)NC1=O", "LC50 [µM]": 16.5}
{"molecule": "C=CC(C)(C)c1[nH]c2ccc(CC(=O)C(C)C)cc2c1/C=C1\\NC(=O)[C@H](C)NC1=O", "LC50 [µM]": 24}
{"molecule": "C=CC(C)(C)c1[nH]c2c(CC=C(C)C)cc(CC=C(C)C)c(CC=C(C)C)c2c1/C=C1\\NC(=O)[C@H](C)NC1=O", "LC50 [µM]": 3.5}
{"molecule": "C=CC(C)(C)c1[nH]c2ccccc2c1/C=C1\\NC(=O)C2(C=C3c4cc(O)cc(OC)c4C(=O)c4c(O)cc(C)c(c43)O2)NC1=O (centres undefined)", "LC50 [µM]": 9.8}
